Target: ZFP SBS#938 (synthetic, UniProt P08047)
Sequence (P08047 other isoform, or with tags, fused parts or gaps): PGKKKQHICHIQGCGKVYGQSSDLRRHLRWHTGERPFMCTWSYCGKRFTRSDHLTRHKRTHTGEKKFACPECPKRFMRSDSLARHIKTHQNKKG
Test: EMSA
Details: tags: MBP fusion
metric.name: pKd
Field pKd (float): negative decimal logarithm of the concentration in molar.

Query string: So what does the record say about pKd for GTGGGGGCT (dsDNA) DNA 1: GTGGGGGCT DNA 2: AGCCCCCAC ?
Result string: 10.31
